These data points were gathered from PubChem BioAssay (NCI).

Kindly state growth inhibition for each of the entries shown.
# assay_details: NCI Yeast Anticancer Drug Screen. Data for the CLN2oe strain (AID 163);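 note: 0% = growth of vehicle-only control cultures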
# condition_notes: S. cerevisiae CLN2oe strain, at 1.2 µM, hits give high values
This is part of a sample that, as a whole, favours compounds with a hit. Of some 79,000 tested, about 15% had one in any assay.
Answer in %, number only, no unit symbol.

Query: Using the record for Cc1c(C2=C(Br)C(=O)N(C)C2=O)c(=O)n(C)c(=O)n1C , state its measured growth inhibition.
Result: -2

Query: Using the record for COc1cc(C2C3=C(COC3=O)Oc3cc4c(cc32)OCO4)ccc1O (stereo not given) , state its measured growth inhibition.
Result: 0

Query: Using the record for COC(=O)c1ccc(CCC2=CC(=O)C(Br)=CC2=O)cc1 , state its measured growth inhibition.
Result: -11

Query: Using the record for Cc1ccc(S(=O)(=O)NC(=O)NC2=NC(C)(C)N(c3ccc(Cl)c(Cl)c3)C(N)=N2)cc1 , state its measured growth inhibition.
Result: -9

Query: Using the record for Cn1c(N)nc(-c2ccc(Cl)cc2)c1SSc1c(-c2ccc(Cl)cc2)nc(N)n1C , state its measured growth inhibition.
Result: -8
